B1: MNAT1 (parent)
chain: LEEALYEYQPLQIETYGPHVPELE

Variants of: B1
experimental.details: protein stability index of a GFP-peptide fusion (GPS, HEK-293T) (PSI 1-6); higher = more stable;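 also: lentivirally expressed fusions sorted by FACS into six bins by GFP to DsRed ratio, PSI derived from sequencing read proportions per bin multiplied by bin number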
condition.context: c terminus: a fixed tail appended
value.type: protein stability index

# mutation.annotation, value
data = [
    ("G17K", 2.88),
    ("E2G", 2.24),
    ("E14M", 2.47),
    ("H19Y", 2.62),
    ("H19D", 2.76),
    ("E24V", 2.19),
    ("L23Y", 2.89),
    ("A4N", 4.61),
    ("T15H", 3.91),
    ("E7V", 1.73),
    ("Y16S", 4.27),
    ("E22V", 2.56),
    ("P10N", 4.75),
    ("P18W", 1.18),
    ("Y6W", 2.39),
    ("P21G", 1.97),
    ("Q9F", 2.13),
    ("L23Q", 2.98),
    ("E24D", 3.39),
    ("E22Q", 2.54),
    ("L5Y", 4.46),
    ("V20K", 3.23),
    ("E22G", 2.43),
    ("Y6I", 2.58),
    ("L11R", 4.32),
    ("Q9T", 4.38),
    ("V20M", 2.57),
    ("G17I", 2.13),
    ("L11I", 2.56),
    ("E22L", 2.35),
    ("L23G", 3.55),
    ("L5W", 3.89),
    ("Y6R", 2.27),
    ("L23V", 2.81),
    ("E14L", 2.01),
    ("Q9H", 1.87),
    ("Y6C", 2.61),
    ("Y6G", 3.43),
    ("L1Q", 5.08),
    ("A4G", 4.4),
    ("V20S", 2.57),
    ("Q12M", 2.35),
    ("L23E", 4.12),
    ("E7C", 1.92),
    ("Y6N", 3.7),
    ("G17F", 2.35),
]

Data origin: the supplement of paper PMC10567573
